Ref: the PolyMetriX glass transition set

experimental.endpoint: glass transition temperature (°C)
Provide the reading as a plain figure in °C.

q: State the recorded glass transition temperature for this entry: *Oc1ccc(Oc2ccc(C(=O)c3ccc(P(=O)(c4ccccc4)c4ccc(C(=O)c5ccc(*)cc5)cc4)cc3)cc2)cc1 (repeat unit)
a: 207.00

q: Entry under review: *OP(=O)(Oc1ccc(Br)cc1)Oc1c(C)cc(S(=O)(=O)c2cc(C)c(*)c(C)c2)cc1C (repeat unit) . Reported glass transition temperature?
a: 162.00

q: For *CC(*)C(=O)c1ccc(C(C)(C)C)cc1 (repeat unit) , what is its reported glass transition temperature?
a: 103.50

q: Would you kindly share the measured glass transition temperature for *c1ccc([Si](c2ccccc2)(c2ccccc2)c2ccc(-c3nnc(-c4ccc(-c5nnc(*)o5)cc4)o3)cc2)cc1 (repeat unit) ?
a: 274.00

q: For the compound *CCCCCCCNC(=O)CCCCC(=O)N* (repeat unit) , what glass transition temperature is on record?
a: 55.00

q: Value lookup for glass transition temperature; key = *CCCCCCCCCCC(=O)Oc1ccc(-c2ccc(OC(=O)c3ccc4c(c3)C(=O)N(*)C4=O)cc2)cc1 (repeat unit)
a: 61.00

q: Name the recorded glass transition temperature for *Oc1ccc(C2(c3ccc(OC(=O)c4ccc(C(*)=O)cc4)cc3)c3ccccc3-c3ccccc32)cc1 (repeat unit) .
a: 285.00

q: May I ask what glass transition temperature has been recorded for *Oc1ccc(C2(c3ccc(OC(*)=S)cc3)CCC(C)CC2)cc1 (repeat unit) ?
a: 168.00
